- test_system: T1, recombinant rat MASP1 active protease (amino acids 302-704, C-terminal His Tag) (rat, UniProt Q8CHN8 302-704)
- T1 sequence: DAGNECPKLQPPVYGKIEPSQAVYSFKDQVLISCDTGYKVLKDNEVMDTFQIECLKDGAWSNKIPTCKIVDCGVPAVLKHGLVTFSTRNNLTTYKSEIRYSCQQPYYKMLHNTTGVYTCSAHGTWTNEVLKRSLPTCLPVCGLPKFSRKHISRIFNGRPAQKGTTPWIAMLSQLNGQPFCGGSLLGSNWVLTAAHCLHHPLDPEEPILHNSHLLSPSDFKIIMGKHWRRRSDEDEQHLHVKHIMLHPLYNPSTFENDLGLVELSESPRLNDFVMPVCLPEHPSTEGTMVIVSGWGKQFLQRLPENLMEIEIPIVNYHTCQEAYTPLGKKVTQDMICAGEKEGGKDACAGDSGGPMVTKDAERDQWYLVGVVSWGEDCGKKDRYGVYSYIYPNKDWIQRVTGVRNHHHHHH
- assay_method_text: cell-based or functional assay
Bridge positions count the residues as written; N and C are the ends. Square brackets hold non-standard residues; d marks the D form. Primed or numbered codes have the meaning given here. Ends that are not written are not given here. * marks the point of attachment. Tranexamic″ = tranexamic acid, NC[C@H]1CC[C@@H](C(=O)*)CC1; Pro(3S,4R-methano) = O=C(O)[C@H]1NC[C@@H]2C[C@@H]21; tBuAla = CC(C)(C)C[C@H](N)C(=O)O; Pen = CC(C)(S)[C@H](N)C(=O)O; Sar = CNCC(=O)O
Each record here notes measured rat MASP1 IC50.

{"columns": ["binder", "rat MASP1 IC50"],
 "data": [
  ["[Sar]ICSRS[tBuAla]P[Pro(3S,4R-methano)]I[Pen]IPD-OH (disulfide 3-11; N-terminus assumed; SMILES CC[C@H](C)[C@H](NC(=O)CNC)C(=O)N[C@H]1CSSC(C)(C)[C@@H](C(=O)N[C@H](C(=O)N2CCC[C@H]2C(=O)N[C@@H](CC(=O)O)C(=O)O)[C@@H](C)CC)NC(=O)[C@H]([C@@H](C)CC)NC(=O)[C@@H]2[C@H]3C[C@H]3CN2C(=O)[C@@H]2CCCN2C(=O)[C@H](CC(C)(C)C)NC(=O)[C@H](CO)NC(=O)[C@H](CCCNC(=N)N)NC(=O)[C@H](CO)NC1=O)", "485 nM"],
  ["{Tranexamic″}-ICSRS[tBuAla]PPI[Pen]IP-NH2 (disulfide 2-10; SMILES CC[C@H](C)[C@@H]1NC(=O)[C@@H]2CCCN2C(=O)[C@@H]2CCCN2C(=O)[C@H](CC(C)(C)C)NC(=O)[C@H](CO)NC(=O)[C@H](CCCNC(=N)N)NC(=O)[C@H](CO)NC(=O)[C@@H](NC(=O)[C@@H](NC(=O)[C@H]2CC[C@@H](CN)CC2)[C@@H](C)CC)CSSC(C)(C)[C@@H](C(=O)N[C@H](C(=O)N2CCC[C@H]2C(N)=O)[C@@H](C)CC)NC1=O) [Example 269: (Tranexamic)-IC+SRS-((tBu)A)-PPI-(Pen)+IP-NH2]", "120 nM"]
]}
